Tested on: antibodies against human ACHR α chain peptides
Test: Binding of anti-peptide antibodies to the peptides on Co-Bind plate
Parameters: species or system mice
Conditions: antisera diluted 1:500 (v/v) with PBS/0.05% casein; corrected for nonspecific binding to casein
Lab note: cut-off is 30000 CPM. Strictly less in Antibody Binding to immunizing Peptide (CPM) is 1. Exactly 30000 CPM or more is -1.

Incoming: Input α23-38: synthetic peptide, residues α23-38 of human AChR α-chain (EDHRQVVEVTVGLQLI) ; condition: Antibody Binding to immunizing Peptide (CPM) strictly below 30000 CPM. Does it hold?
Outgoing: -1

Incoming: Input α100-115: synthetic peptide, residues α100-115 of human AChR α-chain (FAIVKFTKVLLQYTGH) ; condition: Antibody Binding to immunizing Peptide (CPM) strictly below 30000 CPM. Does it hold?
Outgoing: -1

Incoming: Input α78-93: synthetic peptide, residues α78-93 of human AChR α-chain (IHIPSEKIWRPDLVLY) ; condition: Antibody Binding to immunizing Peptide (CPM) strictly below 30000 CPM. Does it hold?
Outgoing: 1

Incoming: Input α45-60: synthetic peptide, residues α45-60 of human AChR α-chain (EVNQIVTTNVRLKQQW) ; condition: Antibody Binding to immunizing Peptide (CPM) strictly below 30000 CPM. Does it hold?
Outgoing: -1

Incoming: Input α158-174: synthetic peptide, residues α158-174 of human AChR α-chain (INPESDQPDLSNFMESG) ; condition: Antibody Binding to immunizing Peptide (CPM) strictly below 30000 CPM. Does it hold?
Outgoing: 1

Incoming: Input α1-16: synthetic peptide, residues α1-16 of human AChR α-chain (SEHETRLVAKLFKDYS) ; condition: Antibody Binding to immunizing Peptide (CPM) strictly below 30000 CPM. Does it hold?
Outgoing: -1

Incoming: Input α194-210: synthetic peptide, residues α194-210 of human AChR α-chain (PDTPYLDITYHFVMQRL) ; condition: Antibody Binding to immunizing Peptide (CPM) strictly below 30000 CPM. Does it hold?
Outgoing: -1

Incoming: Input α170-186: synthetic peptide, residues α170-186 of human AChR α-chain (FMESGEWVIKESRGWKH) ; condition: Antibody Binding to immunizing Peptide (CPM) strictly below 30000 CPM. Does it hold?
Outgoing: -1

Incoming: Input α34-49: synthetic peptide, residues α34-49 of human AChR α-chain (GLQLIQLINVDEVNQI) ; condition: Antibody Binding to immunizing Peptide (CPM) strictly below 30000 CPM. Does it hold?
Outgoing: -1

Incoming: Input α134-150: synthetic peptide, residues α134-150 of human AChR α-chain (HFPFDEQNGSMKLGTWT) ; condition: Antibody Binding to immunizing Peptide (CPM) strictly below 30000 CPM. Does it hold?
Outgoing: -1

Incoming: Input α56-71: synthetic peptide, residues α56-71 of human AChR α-chain (LKQQWVDYNLKWNPDD) ; condition: Antibody Binding to immunizing Peptide (CPM) strictly below 30000 CPM. Does it hold?
Outgoing: -1

Incoming: Input α67-82: synthetic peptide, residues α67-82 of human AChR α-chain (WNPDDYGGVKKIHIPS) ; condition: Antibody Binding to immunizing Peptide (CPM) strictly below 30000 CPM. Does it hold?
Outgoing: 1

Incoming: Input α146-162: synthetic peptide, residues α146-162 of human AChR α-chain (LGTWTYDGSVVAINPES) ; condition: Antibody Binding to immunizing Peptide (CPM) strictly below 30000 CPM. Does it hold?
Outgoing: 1
